target: ATP-binding cassette sub-family C member 2 (Homo sapiens, UniProt Q92887); test: TP_TRANSPORTER: inhibition of Vinblastine transepithelial transport (basal to apical) in MRP2-expressing MDCK cells; type: functional, cell-based
Sequence (Q92887 whole entry): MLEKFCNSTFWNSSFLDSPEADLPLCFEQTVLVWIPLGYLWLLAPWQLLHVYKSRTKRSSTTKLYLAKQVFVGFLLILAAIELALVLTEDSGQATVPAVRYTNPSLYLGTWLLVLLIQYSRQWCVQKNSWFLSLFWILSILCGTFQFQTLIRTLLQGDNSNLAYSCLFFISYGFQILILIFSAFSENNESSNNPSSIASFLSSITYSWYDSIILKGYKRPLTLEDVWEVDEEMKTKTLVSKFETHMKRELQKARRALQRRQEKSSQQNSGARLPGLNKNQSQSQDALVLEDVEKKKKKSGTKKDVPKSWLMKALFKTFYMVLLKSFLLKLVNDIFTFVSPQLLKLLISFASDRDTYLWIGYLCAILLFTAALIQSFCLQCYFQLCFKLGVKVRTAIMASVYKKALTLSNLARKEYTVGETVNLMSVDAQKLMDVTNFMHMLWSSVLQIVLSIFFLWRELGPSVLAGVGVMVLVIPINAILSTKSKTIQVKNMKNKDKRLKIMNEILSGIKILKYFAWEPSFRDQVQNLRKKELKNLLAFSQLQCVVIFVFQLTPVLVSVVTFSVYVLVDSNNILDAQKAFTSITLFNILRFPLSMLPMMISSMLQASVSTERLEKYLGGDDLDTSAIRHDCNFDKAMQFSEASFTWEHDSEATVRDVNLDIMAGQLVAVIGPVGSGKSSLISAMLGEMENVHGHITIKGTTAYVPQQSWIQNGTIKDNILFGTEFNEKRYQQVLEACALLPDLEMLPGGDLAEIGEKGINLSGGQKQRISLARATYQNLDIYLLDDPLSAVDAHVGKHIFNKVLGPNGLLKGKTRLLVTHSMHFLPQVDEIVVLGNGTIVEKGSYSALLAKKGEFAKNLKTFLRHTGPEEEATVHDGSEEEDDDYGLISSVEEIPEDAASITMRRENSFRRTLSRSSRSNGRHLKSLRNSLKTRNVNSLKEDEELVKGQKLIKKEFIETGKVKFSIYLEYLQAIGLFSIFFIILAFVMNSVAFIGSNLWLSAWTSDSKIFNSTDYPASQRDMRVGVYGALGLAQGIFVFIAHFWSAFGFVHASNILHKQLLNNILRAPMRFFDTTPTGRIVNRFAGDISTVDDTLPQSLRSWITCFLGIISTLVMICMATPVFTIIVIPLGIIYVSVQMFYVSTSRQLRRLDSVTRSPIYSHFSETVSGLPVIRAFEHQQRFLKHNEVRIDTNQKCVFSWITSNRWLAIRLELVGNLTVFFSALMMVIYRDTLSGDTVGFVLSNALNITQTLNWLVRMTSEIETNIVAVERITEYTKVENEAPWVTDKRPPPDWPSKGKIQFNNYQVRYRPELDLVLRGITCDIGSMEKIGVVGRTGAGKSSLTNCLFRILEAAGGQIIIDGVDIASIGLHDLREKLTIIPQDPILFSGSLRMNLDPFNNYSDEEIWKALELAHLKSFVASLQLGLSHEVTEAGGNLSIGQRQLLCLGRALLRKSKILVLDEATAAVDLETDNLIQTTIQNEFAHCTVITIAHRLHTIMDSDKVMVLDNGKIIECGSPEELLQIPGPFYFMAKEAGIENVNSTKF
// NB: equality with 50 µM counts as no (0); only Ki strictly below is yes (1)

>>> group_label("COC(=O)[C@H]1[C@H]2C[C@@H]3c4[nH]c5cc(OC)ccc5c4CCN3C[C@H]2C[C@@H](OC(=O)c2cc(OC)c(OC)c(OC)c2)[C@@H]1OC")
"no (0)"
>>> group_label("COc1cc([C@@H]2c3cc4c(cc3[C@@H](O[C@@H]3O[C@@H]5CO[C@@H](C)O[C@H]5[C@H](O)[C@H]3O)[C@H]3COC(=O)[C@H]23)OCO4)cc(OC)c1O [ETOPOSIDE]")
"no (0)"
>>> group_label("CN(C)C(=O)CCSC(SCCC(=O)O)c1cccc(/C=C/c2ccc3ccc(Cl)cc3n2)c1 (stereo not given)")
"yes (1)"
>>> group_label("CC[C@]1(O)C[C@H]2CN(CCc3c([nH]c4ccccc34)[C@@](C(=O)OC)(c3cc4c(cc3OC)N(C=O)[C@H]3[C@@](O)(C(=O)OC)[C@H](OC(C)=O)[C@]5(CC)C=CCN6CC[C@]43[C@@H]65)C2)C1")
"no (0)"
